These entries and their values trace back to PubChem BioAssay (EPA / NIEHS).

Read-out: Pselectin, SELP (gene 6403)
Assay: BSK_4H_Pselectin: BioMAP Diversity Plus: 4H Assay for Pselectin Biomarker Activity (AID 2283026)
Settings: primary human endothelial cells (HUVEC); actives raise or lower the signal
Active and inactive are the calls of the source. How the source made its calls: active means hit-call score of the fitted dose curve at least 0.9, where 1 is the maximum; inactive means score below 0.9.
Lab note: assign the record to one of active, inactive

Example cases with answers are listed next.
{"columns": ["COMPOUND", "LABEL"],
 "data": [
  ["CC(Cl)CN(C)C (stereo not given)", "inactive"],
  ["Cc1ccc2c(c1N)C(=O)c1ccccc1C2=O", "inactive"]
]}

Answer briefly: the call reported for `O=S(=O)(F)C(F)(F)C(F)(F)C(F)(F)C(F)(F)C(F)(F)C(F)(F)C(F)(F)C(F)(F)F` in this assay.
inactive

I would be grateful if you could indicate the recorded call for `O=[N+]([O-])c1ccccc1` .
inactive

Please state the recorded outcome for this compound: `Cc1ccc(O)cc1C`
inactive

Dear colleague, could you share the recorded outcome for `CC(C)Nc1ccc(Nc2ccccc2)cc1` when you have a moment?
active

Hi team, can someone confirm the assay call for `CSC(C)(C)C=NO` ?
inactive

Any idea what this test logged for `Cc1c([N+](=O)[O-])cc2c(c1[N+](=O)[O-])C(C)(C)CC2(C)C` ?
inactive

// return assay outcome for `CCNc1nc(Cl)nc(NC(C)(C)C)n1`
inactive

Field: outcome | Entry: `COCCOCCO`
inactive

Call for entry `CCOP(=S)(S)OCC` :
inactive

Please let me know the test result on file for O=S1(=O)OCC2C(CO1)C1(Cl)C(Cl)=C(Cl)C2(Cl)C1(Cl)Cl (stereo not given) .
active
